Tested on: OVCAR-5 ovarian
Assay: NCI-60 one-dose screen, 48 h (100 = growth as untreated, 0 = no growth, -100 = all killed)
Condition Notes: 10 µM unless noted
This is part of a sample that, as a whole, favours compounds with a hit. Of some 83,000 tested, about 20% had one in any assay.
Measure Name: growth (%)
One number for each entry, in %.

O=C1Nc2c(ccc(Cl)c2Cl)/C1=C/c1ccc(F)cc1    84.4

# map each compound to its growth
1. CCc1c(Nc2ccc(C)cc2)nc(N)[nH]c1=O
2. COc1ccc(C(=O)/C=C/c2cn(Cc3ccc(Cl)cc3)c3ccccc23)cc1
3. COc1cc(CCNc2nc3cc(N)cc(N)c3nc2-c2ccccc2)cc(OC)c1
4. COc1ccc(-c2nn(Cc3ccccc3)c3c2-c2oncc2CC3)cc1OC
5. CC(c1ccccc1)n1ccnc1CO (stereo not given)
6. O=C1CCC(NC(=S)Nc2ccccc2)N1 (stereo not given)

Ans:
101
13.4
13.4
103
104
111

# map each compound to its growth
1. COC(=O)Nc1nc2ccc(C(=O)c3cccc(I)c3)cc2[nH]1
2. O=C(O)c1cn(C2CC2)c2cc(N3CCN(C(=O)C[n+]4cccc5ccccc54)CC3)c(F)cc2c1=O
3. CSc1nnc2c(=O)n(C)c(=O)n(C)c2n1
4. C[C@H]1[C@H](C)CC[C@]2(CO)CC[C@]3(C)C(=CC[C@@H]4[C@@]5(C)Cc6c([nH]c7ccccc67)C(C)(C)[C@@H]5CC[C@]43C)[C@H]12
5. c1ccc(-c2nn(-c3ccccc3)[n+](-c3ccccc3-c3ccccc3)n2)cc1
6. CNC(=O)c1c(NC(=O)c2ccc(C(C)C)cc2)sc2c(CN(C)C)c(O)ccc12

Ans:
28.6
100
100
116
37.1
106

# map each compound to its growth
1. CCCCCCCCCCCCCCCC(=O)OC[C@@]1(O)C[C@@]23CC[C@@H]4C(C)(C)CCC[C@@]4(C)[C@@H]2CC[C@H]1C3
2. CC(=O)OC1CCC2(C)C(CCC3C4CC=C(C(C)=O)C4(C)OC(=O)CC32)C1 (stereo not given)

Ans:
1. 108
2. 75.1

====

Test system: COLO 205 colon
Assay: NCI-60 one-dose screen, 48 h
Condition Notes: 10 µM unless noted
The panel holds about 83,000 compounds, 20% with a hit somewhere; the sample as a whole holds those more often. The source made the active and inactive calls. The calls were made as follows: active = growth percent below 10; inactive = the rest.
Result category, one only: active, inactive

O=C1NC(=S)NC(=O)C1=Cc1cccc(C=C2C(=O)NC(=S)NC2=O)c1    inactive

Now take the following compound into account.
Q: // param item: CCCCCCCCCCCC(=O)C(CCCCCCCCCC)C(=O)Nc1ccccc1 (stereo not drawn) ; yields the recorded call
Ans: inactive

====

For each entry below, report its growth value.
Tested on: PC-3 prostate
Assay: NCI-60 one-dose screen, 48 h (100 = growth as untreated, 0 = no growth, -100 = all killed)
Condition Notes: 10 µM unless noted
This is part of a sample that, as a whole, favours compounds with a hit. Of some 83,000 tested, about 20% had one in any assay.
Give bare numbers, in %.

Known growth results, listed for orientation:
Cc1cc2nc(-c3ccccc3)c(-c3ccccc3)nc2cc1C    106
COc1cccc(CCC(=O)c2cc3c(N)c(C(=O)Nc4ccccc4)sc3nc2C)c1    49.8
O=C1c2ccccc2-c2c1c1c(NCCCO)nc3ccccc3c1n2Cc1ccccc1    33.8

Q: Return growth for the following molecule: COc1ccc(Cl)cc1NC(=O)c1c(NC(=O)C(F)(F)C(F)(F)F)sc2c1CCCCC2
Ans: 5.18

====

System: MDA-MB-435 melanoma
Assay: NCI-60 one-dose screen, 48 h
Condition Notes: 10 µM unless noted
About 83,000 compounds went through this panel and 20% of them were active in at least one assay; those are over-represented in the sample as a whole. The source made the active and inactive calls. The calls were made as follows: active = growth percent below 10; inactive = the rest.
Result category, one only: active, inactive

COc1cc(/C=C/C(=O)c2ccc(Nc3ncnc4ccccc34)cc2)cc(OC)c1    active
COc1ccc(C(=O)c2cc3c(N)c(C(=O)Nc4ccc(Br)cc4)sc3nc2C)cc1    inactive
Cn1/c(=N/NC(N)=S)ccc2ccccc21    inactive
COc1ccc(OC)c(/C=C/[C@H]2O[C@@H](C)[C@H](O)[C@@H]2O)c1    inactive
CC(=O)c1cccc(NS(=O)(=O)c2cccc(C(=O)Nc3ccc(Br)cc3)c2)c1    inactive

Q: // param item: NC(=O)c1ccc[n+](CC(=O)N2CCN(c3cc4c(cc3F)c(=O)c(C(=O)O)cn4C3CC3)CC2)c1 ; yields the recorded call
Ans: inactive

Q: // param item: CC(=O)c1c[nH]c2ccc(-c3ccnc(Nc4ccc(NC(=O)c5cccc(F)c5)c(CN5CCOCC5)c4)n3)cc12 ; yields the recorded call
Ans: active

Q: // param item: CC(=O)OC1CCC2(C)C(CCC3C4CC=C(C(C)=O)C4(C)OC(=O)CC32)C1 (configuration not stated) ; yields the recorded call
Ans: inactive

Q: // param item: Clc1nc(Cl)c2ncn(CC3(Cn4cnc5c(Cl)nc(Cl)nc54)COC3)c2n1 ; yields the recorded call
Ans: active

Q: // param item: CC(=O)Nc1ccc(S(=O)(=O)NC2CCCCC2)cc1 ; yields the recorded call
Ans: inactive

Q: // param item: COc1ccc(C2CC(c3cccc(Nc4ccncc4)c3)=NN2c2cc(Cl)cc(Cl)c2)cc1 (configuration not stated) ; yields the recorded call
Ans: active

Q: // param item: O=C(Nc1ccccc1)Oc1ccccc1-c1ccccc1 ; yields the recorded call
Ans: inactive

Q: // param item: C[C@]12C[C@H]1CC[C@]1(C)[C@@H]2CC[C@@]23C[C@H](CC[C@H]21)[C@@](O)(CO)C3 ; yields the recorded call
Ans: inactive

====

For each entry below, report its growth value.
Test system: SF-539 CNS
Assay: NCI-60 one-dose screen, 48 h (100 = growth as untreated, 0 = no growth, -100 = all killed)
Condition Notes: 10 µM unless noted
Compounds without any hit were thinned out: in the full panel of roughly 83,000, 20% have a hit. Calls of active or inactive are those of the source. Rule for the calls: active = growth percent below 10; inactive = the rest.

C=CCn1c(SCC(=O)Nc2ccc(C(=O)/C=C/c3cc(OC)c(OC)c(OC)c3)cc2)nnc1-c1cc(-c2ccc(S(C)(=O)=O)cc2)nc2ccccc12    86% (inactive)
Fc1ccc(C2CC(c3cccc(Nc4ccncc4)c3)=NN2c2cc(Cl)cc(Cl)c2)cc1 (stereo unspecified)    83% (inactive)

# map each molecule to its growth
1. CCOc1cc(CNc2ccc(N3CCOCC3)c(C(=O)O)c2)ccc1OC
2. COc1ccc(OC)c(/C=C/[C@H]2O[C@@H](C)[C@H](O)[C@@H]2O)c1
3. Cc1ccc(S(=O)(=O)Nc2ccc(Cl)cc2)cc1

Ans:
104% (inactive)
100% (inactive)
104% (inactive)

====

System: OVCAR-5 ovarian
Assay: NCI-60 one-dose screen, 48 h
Condition Notes: 10 µM unless noted
Method: Growth inhibition of the OVCAR-5 human tumor cell line is measured as a screen for anti-cancer activity. Cells are grown in 96 well plates and exposed to the test compound for 48 hours. Compounds are tested at a single concentration, which is 10^-5 M for most compounds. The reported endpoint is percent growth (GI% or GIPRCNT), where numbers from 0 - 100% represent growth inhibition, and numbers from -100% - 0 represent cell death. For example, a value of 40 represents 60% growth inhibition. […]
Compounds without any hit were thinned out: in the full panel of roughly 83,000, 20% have a hit. The source made the active and inactive calls. The calls were made as follows: active = growth percent below 10; inactive = the rest.
Result category, one only: TRUE for active, FALSE for inactive

Examples with answers:
O=C1/C(=C\c2cn(Cc3ccccc3)c3ccc(Br)cc23)c2ccccc2N1c1c(Cl)cccc1Cl    FALSE
CCn1ccnc1C(=O)/C=C/c1ccc(CC(=O)Nc2ccc(F)cc2)cc1    FALSE
Clc1cc(Cl)cc(N2N=C(c3cccc(Nc4ccncc4)c3)CC2c2ccc(Br)cc2)c1 (stereo unspecified)    FALSE
O=C(CCN1CCCC1)Nc1ccc2c(NCc3ccc(F)cc3)c3ccccc3nc2c1    TRUE
Nc1cc(N)c2cccnc2c1O    FALSE

Q: // param item: COc1ccc(/C=C2\COc3ccc(-c4ccccc4)cc3C2=O)cc1O ; yields the recorded call
Ans: FALSE

Q: // param item: COc1ccc(-c2cnnc3c(-c4cccc(C(F)(F)F)c4)cnn23)cc1 ; yields the recorded call
Ans: FALSE

Q: // param item: CN(C)C(=O)c1cc2cnc(Nc3ccc(-c4csc5c(=O)cc(N6CCOCC6)oc45)cc3)nc2n1C1CCCC1 ; yields the recorded call
Ans: TRUE

Q: // param item: NC(=O)c1cccc(-n2ccc3cc(NC(=O)Nc4cc(C(F)(F)F)cc(C(F)(F)F)c4)ccc32)n1 ; yields the recorded call
Ans: FALSE

Q: // param item: O=C1c2ccccc2-c2c1c1c(NCCCO)nc3ccccc3c1n2Cc1ccccc1 ; yields the recorded call
Ans: FALSE
